# Tested on: white rat females
# CONDITION NOTES: female, in vivo, 5000 mg/kg, 13 day
REPORTED METRIC: died, 13 day

Reported died, 13 day for O=C(O)CCC(=O)O [Example 8, succinic acid] was 1

Lab note: measured died, 13 day of O=C(O)CCC(=O)O [“Natural” SA, succinic acid, reference compound] was 1

Lab book: died, 13 day of O=C(O)CCC(=O)O [Example 9, succinic acid] noted as 2

The recorded died, 13 day for O=C(O)CCC(=O)O [Example 4, succinic acid] is 1

Sample O=C(O)CCC(=O)O [Example 10, succinic acid] ; died, 13 day observed: 1

Short answer for O=C(O)CCC(=O)O [Example 7, succinic acid] : died, 13 day was 2

The reported died, 13 day of the compound O=C(O)CCC(=O)O [Example 5, succinic acid] was 2

* * *

# Tested on: white rat females
# CONDITION NOTES: female, in vivo, 5000 mg/kg, 14 days
REPORTED METRIC: Total died
Returns: the value as a bare number; no unit string appended.

Notebook: O=C(O)CCC(=O)O [Example 6, succinic acid] , Total died read as 3

# molecule O=C(O)CCC(=O)O [Example 2, succinic acid, reference compound] ; its Total died = 0

Total died reading for O=C(O)CCC(=O)O [Example 8, succinic acid] : 3

Entry O=C(O)CCC(=O)O [Example 3, succinic acid, reference compound] — recorded Total died = 2

Form field Total died, entry O=C(O)CCC(=O)O [Example 7, succinic acid] : 4

Summary for this molecule, O=C(O)CCC(=O)O [Example 9, succinic acid] : Total died is 3

* * *

# Test system: patients with cardiac insufficiency
# CONDITION NOTES: 100 mg twice per day with standard therapy; after 30 days
# Description: The test for cardiotonic activity of product samples was performed by measuring the dynamics of alteration of the functional class of cardiac failure. The functional class can be determined quite accurately by analyzing the everyday life activities according to a specific activity scale. […] After calculating the sum of possible energy expenses, the functional class of the patient is determined according to the summary criteria of the specific activity scale (Table 6). […]
What patients of functional class II, day 30 was measured for each of the following?
Quick one: just the number, no unit, thanks!

// patients of functional class II, day 30 value for O=C(O)CCC(=O)O [Example 7, succinic acid] : 6

According to the records, this molecule O=C(O)CCC(=O)O [Example 4, succinic acid] displays patients of functional class II, day 30 of 7

The molecule O=C(O)CCC(=O)O [Example 9, succinic acid] showed patients of functional class II, day 30 equal to 6

O=C(O)CCC(=O)O [Example 2, succinic acid, reference compound] yielded patients of functional class II, day 30 of 7

Please fill in: patients of functional class II, day 30 reported for O=C(O)CCC(=O)O [“Natural” SA, succinic acid, reference compound] = 6

# patients of functional class II, day 30 (molecule: O=C(O)CCC(=O)O [Example 10, succinic acid] ) is 5

get_value(item= O=C(O)CCC(=O)O [Example 5, succinic acid] , readout=patients of functional class II, day 30) returns 7

For record O=C(O)CCC(=O)O [Example 1, succinic acid, reference compound] the listed patients of functional class II, day 30 is 7

Summary for this molecule, O=C(O)CCC(=O)O [Example 3, succinic acid, reference compound] : patients of functional class II, day 30 is 7

get_value(item= O=C(O)CCC(=O)O [Example 8, succinic acid] , readout=patients of functional class II, day 30) returns 6

// sample O=C(O)CCC(=O)O [Example 6, succinic acid] , its patients of functional class II, day 30 was 6

* * *

# System: patients with cardiac insufficiency
# CONDITION NOTES: 100 mg twice per day with standard therapy; after 30 days
Field: patients of functional class III, day 30. Provide a value for each of the compounds that follow.
# respond with the number and nothing more

Just so you know, measured patients of functional class III, day 30 for O=C(O)CCC(=O)O [Example 5, succinic acid] came out at 5

Field patients of functional class III, day 30 (entry O=C(O)CCC(=O)O [Example 1, succinic acid, reference compound] ) reads 5

Form: compound = O=C(O)CCC(=O)O [Example 7, succinic acid] ; patients of functional class III, day 30 = 5

response.value for O=C(O)CCC(=O)O [“Natural” SA, succinic acid, reference compound] (field: patients of functional class III, day 30) = 4

According to the records, this compound O=C(O)CCC(=O)O [Example 10, succinic acid] displays patients of functional class III, day 30 of 4

O=C(O)CCC(=O)O [Example 8, succinic acid] has a reported patients of functional class III, day 30 of 4

Just so you know, measured patients of functional class III, day 30 for O=C(O)CCC(=O)O [Example 2, succinic acid, reference compound] came out at 5

Recorded patients of functional class III, day 30 (compound O=C(O)CCC(=O)O [Example 3, succinic acid, reference compound] ): 4

# patients of functional class III, day 30 of O=C(O)CCC(=O)O [Example 9, succinic acid] = 4

// O=C(O)CCC(=O)O [Example 6, succinic acid] : patients of functional class III, day 30 value = 4

Lab book: patients of functional class III, day 30 of O=C(O)CCC(=O)O [Example 4, succinic acid] noted as 5

* * *

# Tested on: patients with cardiac insufficiency
# CONDITION NOTES: 100 mg twice per day with standard therapy; after 90 days
REPORTED METRIC: patients of functional class III, day 90

For this compound ( O=C(O)CCC(=O)O [Example 5, succinic acid] ), measured patients of functional class III, day 90 is 1

Given item O=C(O)CCC(=O)O [Example 6, succinic acid] , the value recorded as its patients of functional class III, day 90 is 1

Noted for O=C(O)CCC(=O)O [Example 3, succinic acid, reference compound] : its patients of functional class III, day 90 reads 3

Entry O=C(O)CCC(=O)O [Example 1, succinic acid, reference compound] , patients of functional class III, day 90 reported as 4

# patients of functional class III, day 90 (compound: O=C(O)CCC(=O)O [Example 7, succinic acid] ) is 1

What the record says about O=C(O)CCC(=O)O [Example 4, succinic acid] : patients of functional class III, day 90 is 1

According to the records, this compound O=C(O)CCC(=O)O [Example 8, succinic acid] displays patients of functional class III, day 90 of 1

patients of functional class III, day 90 measured on O=C(O)CCC(=O)O [“Natural” SA, succinic acid, reference compound] = 1

Note to self: patients of functional class III, day 90 recorded for O=C(O)CCC(=O)O [Example 9, succinic acid] was 1

Value of patients of functional class III, day 90 reported for the compound O=C(O)CCC(=O)O [Example 10, succinic acid] is 1

Per the records, this compound ( O=C(O)CCC(=O)O [Example 2, succinic acid, reference compound] ) has patients of functional class III, day 90 equal to 4

* * *

Give measured died, 14 day for each item. Keep answers brief.
# Tested on: white rat females
# CONDITION NOTES: female, in vivo, 5000 mg/kg, 14 day
Lab note: jot down the number only; don't add units.

Memo: O=C(O)CCC(=O)O [Example 6, succinic acid] , reported died, 14 day: 2

Reported died, 14 day of O=C(O)CCC(=O)O [Example 3, succinic acid, reference compound] : 2

Measured died, 14 day of O=C(O)CCC(=O)O [Example 10, succinic acid] : 2

* * *

Kindly state patients of functional class II, day 90 for each of the entries shown.
# Tested on: patients with cardiac insufficiency
# CONDITION NOTES: 100 mg twice per day with standard therapy; after 90 days
// no unit, no text: just the number

For O=C(O)CCC(=O)O [Example 6, succinic acid] the compound record lists patients of functional class II, day 90 as 5

Per the record, O=C(O)CCC(=O)O [Example 4, succinic acid] has patients of functional class II, day 90 of 6

Sample O=C(O)CCC(=O)O [Example 2, succinic acid, reference compound] ; patients of functional class II, day 90 observed: 8

Input O=C(O)CCC(=O)O [Example 7, succinic acid] . Output patients of functional class II, day 90: 4

O=C(O)CCC(=O)O [Example 5, succinic acid] yielded patients of functional class II, day 90 of 5

// field: patients of functional class II, day 90; key: O=C(O)CCC(=O)O [Example 8, succinic acid] ; value = 5

The compound O=C(O)CCC(=O)O [Example 10, succinic acid] showed patients of functional class II, day 90 equal to 5

patients of functional class II, day 90 measured on O=C(O)CCC(=O)O [Example 3, succinic acid, reference compound] = 7

Note to self: patients of functional class II, day 90 recorded for O=C(O)CCC(=O)O [Example 9, succinic acid] was 5

The compound identified as O=C(O)CCC(=O)O [Example 1, succinic acid, reference compound] registered its patients of functional class II, day 90 at 7

The value of patients of functional class II, day 90 measured for the compound O=C(O)CCC(=O)O [“Natural” SA, succinic acid, reference compound] turned out to be 5
